- System: Botrytis cinerea
- protocol_text: Fungicidal activity against benzimidazole-resistant Botryotinia fuckeliana at 25 ppm after 48 hr by poisoned food technique
- Format: functional
parameter_measured: Activity (%)
Give bare numbers, in %.

[[record]]
chemical_smiles = "CCO/N=C/Nc1cc(Cl)ccc1OCC"
value = 100

[[record]]
chemical_smiles = "CCO/N=C/Nc1cc(C)c(OCC)c(OCC)c1"
value = 100

[[record]]
chemical_smiles = "CCO/N=C/Nc1ccc(OCC)c(OCC)c1"
value = 70

[[record]]
chemical_smiles = "CCO/N=C/Nc1ccc(C)c(Cl)c1"
value = 26


# batch size: 8; output Activity per entry
1. CCO/N=C/Nc1cc(Cl)c(OCC)c(Cl)c1
2. CCO/N=C/Nc1cc(Cl)c(OCC)c(OCC)c1
3. CCO/N=C/Nc1cc(Cl)cc(Cl)c1
4. CCO/N=C/Nc1cc(OCC)ccc1OCC
5. CCO/N=C/Nc1ccc(OCC)c(Cl)c1
6. CCO/N=C/Nc1cccc(OCC)c1
7. CCO/N=C/Nc1ccccc1OCC
8. CCO/N=C/Nc1cc(C)c(OCC)c(C)c1

Result:
[100, 100, 26, 100, 26, 26, 100, 100]

# batch size: 3; output Activity per entry
1. CCO/N=C/Nc1cc(C)cc(C)c1OCC
2. CCO/N=C/Nc1cc(OCC)c(OCC)c(OCC)c1
3. CCO/N=C/Nc1cc(Cl)cc(Cl)c1OCC

Result:
100
26
90

Problem: I would be grateful if you could share the reported Activity for `CCO/N=C/Nc1ccccc1CC` .
Result: 100

---

- System: Phaseolus vulgaris
- protocol_text: Phytotoxicity against Phaseolus vulgaris (kidney bean) assessed as necrosis of leaf at 100 ppm after 7 days in greenhouse conditions
- Assay type: organism-based
- test_parameters: in vivo, 168 h
parameter_measured: Activity

These recorded examples may help you get a feel for the data.
[[record]]
chemical_smiles = "CCO/N=C/Nc1ccc(Cl)cc1"
parameter_measured = "Activity"
value = "Non-toxic"

[[record]]
chemical_smiles = "CCO/N=C/Nc1cc(Cl)c(SSCC)c(Cl)c1"
parameter_measured = "Activity"
value = "Non-toxic"

[[record]]
chemical_smiles = "CCO/N=C/Nc1cc(Cl)c(OC)c(Cl)c1"
parameter_measured = "Activity"
value = "Non-toxic"

[[record]]
chemical_smiles = "CCO/N=C/Nc1cc(Cl)ccc1OCC"
parameter_measured = "Activity"
value = "<= 10%"

[[record]]
chemical_smiles = "C#CCc1c(Cl)cc(N/C=N/OC)cc1Cl"
parameter_measured = "Activity"
value = "Non-toxic"


# batch size: 2; output Activity per entry
1. CCO/N=C/Nc1ccc(Cl)cc1Cl
2. CCO/N=C/Nc1cc(C)c(OCC)c(OCC)c1

Result:
<= 10%
Non-toxic

---

What logP was measured for each of the following?
- protocol_text: 1-octanol/water distribution coefficient, log P of the compound
- Type: physicochemical
Answers are plain numbers.

These recorded examples may help you get a feel for the data.
[[record]]
chemical_smiles = "C#CCO/N=C/Nc1cc(Cl)c(CC#C)c(Cl)c1"
value = 3.3

[[record]]
chemical_smiles = "CCCCc1c(Cl)cc(N/C=N/OCC)cc1Cl"
value = 5.6

[[record]]
chemical_smiles = "C#CCOc1c(Cl)cc(NC=NOCC)cc1Cl"
value = 3.6

[[record]]
chemical_smiles = "C#CCc1c(Cl)cc(N/C=N/OCCCC)cc1Cl"
value = 4.4

[[record]]
chemical_smiles = "C#CCc1c(Cl)cc(N/C=N/OCc2ccccc2)cc1Cl"
value = 4.2


# batch size: 2; output logP per entry
1. C#CCc1c(Cl)cc(N/C=N/OCC#N)cc1Cl
2. CC#CCOc1c(Cl)cc(N/C=N/OCC)cc1Cl

Result:
[3, 4]

---

- Test system: Botrytis cinerea
- protocol_text: Fungicidal activity against benzimidazole-resistant Botryotinia fuckeliana after 48 hr by poisoned food technique
- Type: functional, organism-based
- test_parameters: Botrytis cinerea, 48 h; read-out: pEC50 (converted)
What EC50 was measured for each of the following?
Numbers only, in µM.

These recorded examples may help you get a feel for the data.
[[record]]
molecule = "CCO/N=C/Nc1cc(Cl)c(OC(C)C)c(Cl)c1"
parameter_measured = "EC50"
unit_info = "µM"
value = 6.92

[[record]]
molecule = "C#CCc1c(Cl)cc(N/C=N/OC)cc1Cl"
parameter_measured = "EC50"
unit_info = "µM"
value = 0.0182

[[record]]
molecule = "CCO/N=C/Nc1cc(Cl)c(OCCCl)c(Cl)c1"
parameter_measured = "EC50"
unit_info = "µM"
value = 0.0324

[[record]]
molecule = "C#CCc1c(Cl)cc(N/C=N/OCC#N)cc1Cl"
parameter_measured = "EC50"
unit_info = "µM"
value = 0.0339

[[record]]
molecule = "CCO/N=C/Nc1cc(Cl)c(S(=O)(=O)CC)c(Cl)c1"
parameter_measured = "EC50"
unit_info = "µM"
value = 30.9

[[record]]
molecule = "C#CCc1c(Cl)cc(N/C=N/Oc2ccc(C)cc2)cc1Cl"
parameter_measured = "EC50"
unit_info = "µM"
value = 0.851


# batch size: 5; output EC50 per entry
1. C#CCc1c(Cl)cc(N/C=N/OCCCC)cc1Cl
2. C#CCOc1c(Cl)cc(NC=NOCC)cc1Cl
3. CC#CCOc1c(Cl)cc(N/C=N/OCC)cc1Cl
4. C#CCc1c(Cl)cc(N/C=N/OCc2ccccc2)cc1Cl
5. C#CCc1c(Cl)cc(N/C=N/O)cc1Cl

Result:
[0.316, 0.0174, 0.166, 2.88, 0.0776]

# batch size: 2; output EC50 per entry
1. CCO/N=C/Nc1cc(Cl)c(CC)c(Cl)c1
2. C#CCc1c(Cl)cc(N/C=N/OCCCl)cc1Cl

Result:
1. 0.389
2. 0.0309

# batch size: 3; output EC50 per entry
1. CCO/N=C/Nc1cc(Cl)c(O)c(Cl)c1
2. CCO/N=C/Nc1cc(Cl)c([S+]([O-])CC)c(Cl)c1 (centres undefined)
3. CCO/N=C/Nc1cc(Cl)cc(Cl)c1

Result:
1. 0.794
2. 162
3. 12

---

- protocol_text: 1-octanol/water distribution coefficient, log P of the compound
- Type: physicochemical
What logP was measured for each of the following?
Numbers only.

# batch size: 7; output logP per entry
1. C#CCc1c(Cl)cc(N/C=N/O)cc1Cl
2. C#CCc1c(Cl)cc(N/C=N/OC(C)CC)cc1Cl (stereo not drawn)
3. C#CCc1c(Cl)cc(N/C=N/OCCOCC)cc1Cl
4. CCO/N=C/Nc1cc(Cl)c(CC)c(Cl)c1
5. C#CCc1c(Cl)cc(N/C=N/OC(C)C)cc1Cl
6. C#CCc1c(Cl)cc(N/C=N/OC/C=C/Cl)cc1Cl
7. CCO/N=C/Nc1cc(Cl)c(O)c(Cl)c1

Result:
[2.8, 4.2, 3.7, 4.8, 3.9, 3.9, 2.8]

# batch size: 6; output logP per entry
1. C=CCOc1c(Cl)cc(N/C=N/OCC)cc1Cl
2. C#CCc1c(Cl)cc(N/C=N/OCC(=O)OCC)cc1Cl
3. CCO/N=C/Nc1cc(Cl)c(SCC)c(Cl)c1
4. CCO/N=C/Nc1cc(Cl)c(OCC#N)c(Cl)c1
5. CCO/N=C/Nc1cc(Cl)c(OC)c(Cl)c1
6. CCO/N=C/Nc1cc(Cl)c(S(=O)(=O)CC)c(Cl)c1

Result:
4.3
3.6
4.6
3.1
3.7
2.8

---

- System: Botrytis cinerea
- protocol_text: Fungicidal activity against benzimidazole-resistant Botryotinia fuckeliana at 6.2 ppm after 48 hr by poisoned food technique
- Assay type: functional
parameter_measured: Activity

These recorded examples may help you get a feel for the data.
[[record]]
chemical_smiles = "CCO/N=C/Nc1ccc(OCC)cc1"
value = "<25%"

[[record]]
chemical_smiles = "CCO/N=C/Nc1cc(Cl)c(OCC)c(Cl)c1"
value = "90%"


# batch size: 8; output Activity per entry
1. CCO/N=C/Nc1cc(Cl)ccc1OCC
2. CCO/N=C/Nc1ccc(Cl)cc1Cl
3. CCO/N=C/Nc1cc(C)cc(C)c1OCC
4. CCO/N=C/Nc1ccc(OCC)c(C)c1
5. CCO/N=C/Nc1c(Cl)c(Cl)cc(Cl)c1Cl
6. CCO/N=C/Nc1cccc(Cl)c1Cl
7. CCO/N=C/Nc1cc(Cl)cc(Cl)c1OCC
8. CCO/N=C/Nc1cc(C)c(OCC)c(OCC)c1

Result:
1. <25%
2. <25%
3. 50%
4. <25%
5. <25%
6. <25%
7. 70%
8. 100%

---

- System: Phaseolus vulgaris
- protocol_text: Phytotoxicity against Phaseolus vulgaris (kidney bean) assessed as necrosis of leaf at 100 ppm after 7 days in greenhouse conditions
- Type: organism-based
- test_parameters: in vivo, 168 h
parameter_measured: Activity

These recorded examples may help you get a feel for the data.
[[record]]
molecule = "CCO/N=C/Nc1cccc(OCC)c1"
parameter_measured = "Activity"
value = "Non-toxic"

[[record]]
molecule = "CCO/N=C/Nc1cc(Cl)c(F)c(Cl)c1"
parameter_measured = "Activity"
value = "<= 10%"

[[record]]
molecule = "CCO/N=C/Nc1cc(Cl)c(SCC)c(Cl)c1"
parameter_measured = "Activity"
value = "Non-toxic"

[[record]]
molecule = "C#CCc1c(Cl)cc(N/C=N/OCOCC)cc1Cl"
parameter_measured = "Activity"
value = "Non-toxic"

[[record]]
molecule = "CCO/N=C/Nc1ccc(OCC)c(C)c1"
parameter_measured = "Activity"
value = "11%"

[[record]]
molecule = "CCO/N=C/Nc1cc(Cl)c(O)c(Cl)c1"
parameter_measured = "Activity"
value = "Non-toxic"

[[record]]
molecule = "CCO/N=C/Nc1cc(Cl)c(Cl)c(Cl)c1"
parameter_measured = "Activity"
value = "Non-toxic"

[[record]]
molecule = "CCO/N=C/Nc1cc(C)cc(C)c1OCC"
parameter_measured = "Activity"
value = "Non-toxic"

[[record]]
molecule = "C#CCc1c(Cl)cc(N/C=N/OCCCC)cc1Cl"
parameter_measured = "Activity"
value = "Non-toxic"

[[record]]
molecule = "C#CCc1c(Cl)cc(N/C=N/OC(C)CC)cc1Cl (configuration not stated)"
parameter_measured = "Activity"
value = "Non-toxic"


# batch size: 7; output Activity per entry
1. CCO/N=C/Nc1ccc(OCC)cc1C
2. CCO/N=C/Nc1cccc(Cl)c1Cl
3. C#CCc1c(Cl)cc(N/C=N/OC/C=C/Cl)cc1Cl
4. CCO/N=C/Nc1ccccc1OCC
5. CCO/N=C/Nc1cc(Cl)cc(Cl)c1OCC
6. C#CCc1c(Cl)cc(N/C=N/Oc2ccc(C)cc2)cc1Cl
7. CCO/N=C/Nc1ccc(OCC)cc1

Result:
1. <= 10%
2. 11%
3. Non-toxic
4. Non-toxic
5. Non-toxic
6. Non-toxic
7. Non-toxic

# batch size: 5; output Activity per entry
1. CCO/N=C/Nc1cc(Cl)cc(Cl)c1
2. CCO/N=C/Nc1c(Cl)c(Cl)cc(Cl)c1Cl
3. C#CCc1c(Cl)cc(N/C=N/OCC(=O)OCC)cc1Cl
4. C#CCc1c(Cl)cc(N/C=N/OCC#N)cc1Cl
5. CCO/N=C/Nc1cc(Cl)c(OCC)c(Cl)c1OCC

Result:
1: <= 10%; 2: Non-toxic; 3: Non-toxic; 4: Non-toxic; 5: Non-toxic

# batch size: 5; output Activity per entry
1. CCO/N=C/Nc1cc(Cl)c(OCC#N)c(Cl)c1
2. CCO/N=C/Nc1cc(Cl)ccc1Cl
3. CCO/N=C/Nc1cc(C)c(OCC)c(C)c1
4. CCO/N=C/Nc1cc(Cl)c(OCOC)c(Cl)c1
5. C#CCc1c(Cl)cc(N/C=N/OCCCl)cc1Cl

Result:
["Non-toxic", "Non-toxic", "<= 10%", "Non-toxic", "Non-toxic"]

# batch size: 3; output Activity per entry
1. C=CCOc1c(Cl)cc(N/C=N/OCC)cc1Cl
2. CCO/N=C/Nc1cccc(Cl)c1
3. CCO/N=C/Nc1cc(Cl)c(OCCCl)c(Cl)c1

Result:
["Non-toxic", "<= 10%", "Non-toxic"]
